Data provenance is patent US12509449B2.

- target: Caenorhabditis elegans slo-1a (Caenorhabditis elegans, UniProt Q95V25)
- Sequence (Q95V25 whole entry): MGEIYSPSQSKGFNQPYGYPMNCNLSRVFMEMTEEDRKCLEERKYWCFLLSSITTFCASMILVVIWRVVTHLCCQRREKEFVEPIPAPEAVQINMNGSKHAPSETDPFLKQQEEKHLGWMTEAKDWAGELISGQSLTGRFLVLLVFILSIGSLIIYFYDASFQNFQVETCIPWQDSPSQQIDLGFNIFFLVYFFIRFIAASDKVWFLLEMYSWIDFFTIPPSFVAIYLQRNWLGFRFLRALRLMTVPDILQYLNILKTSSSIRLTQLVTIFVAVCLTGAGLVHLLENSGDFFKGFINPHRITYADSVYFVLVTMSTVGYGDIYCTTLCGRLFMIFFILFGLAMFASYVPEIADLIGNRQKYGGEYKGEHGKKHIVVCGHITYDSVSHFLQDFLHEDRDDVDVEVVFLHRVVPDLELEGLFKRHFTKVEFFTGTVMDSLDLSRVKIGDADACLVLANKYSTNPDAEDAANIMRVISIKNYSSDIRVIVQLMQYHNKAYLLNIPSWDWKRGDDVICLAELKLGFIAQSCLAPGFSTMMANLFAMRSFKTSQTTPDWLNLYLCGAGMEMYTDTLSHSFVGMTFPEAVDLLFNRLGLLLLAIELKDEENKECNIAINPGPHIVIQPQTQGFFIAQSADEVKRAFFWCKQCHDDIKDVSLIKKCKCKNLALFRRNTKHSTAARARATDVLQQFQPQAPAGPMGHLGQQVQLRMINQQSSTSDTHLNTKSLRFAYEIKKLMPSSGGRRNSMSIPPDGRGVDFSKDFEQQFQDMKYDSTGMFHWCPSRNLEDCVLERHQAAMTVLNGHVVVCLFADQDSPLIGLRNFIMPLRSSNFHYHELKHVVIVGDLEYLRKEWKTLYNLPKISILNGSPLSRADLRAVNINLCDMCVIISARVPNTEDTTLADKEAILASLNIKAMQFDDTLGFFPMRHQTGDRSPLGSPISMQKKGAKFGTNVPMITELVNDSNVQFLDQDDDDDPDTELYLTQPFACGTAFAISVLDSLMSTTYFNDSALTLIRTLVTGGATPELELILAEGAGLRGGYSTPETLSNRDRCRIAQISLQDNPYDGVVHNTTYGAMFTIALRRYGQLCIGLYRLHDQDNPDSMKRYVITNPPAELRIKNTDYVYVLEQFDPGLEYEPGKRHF
- measurement protocol: Agonistic activity at C. elegans Slo-1a, membrane potential (FLIPR) in transfected CHO K1 cells
- protocol conditions: EC50 agonistic activity at C. elegans Slo-1a, membrane potential dye, 70 mM KCl
pEC50: −log10 of the molar value.
Would you kindly list pEC50 for each of these compounds?

For orientation, consider the following solved cases.
COc1c(NC(=O)C2CCOc3ccccc32)cnc2c(-c3cccc(Cl)c3Cl)cccc12 (stereo not shown) : > 6.00
Cc1c(NC(=O)c2cccc3ccccc23)cnc2c(-c3cccc(Cl)c3Cl)cccc12 : > 5.00
CCOc1c(NC(=O)[C@H]2CCCc3ccccc32)cnc2c(-c3cc(Cl)cc(Cl)c3)cccc12 : > 6.00

Now take the following compound into account.
Q: Quick check: pEC50 of COc1c(NC(=O)C2CCOc3ccccc32)cnc2c(-c3cc(Cl)cc(Cl)c3)c(F)ccc12 (stereo not shown) ?
Ans: > 6.00
